Assay: S16 Schwann cell PMP22 intronic element beta-lactamase assay (AID 624044);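 further: 0% = DMSO and -100% = potassium clavulanate positive control; nearly all actives have a fitted effect of over 15% in size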
Details: S16 rat Schwann cells, PMP22 element beta-lactamase FRET, 24 h; at 38.3 µM (top of the series) unless noted
Inconclusive results are not listed.
Please respond with reported ratio activity, negative = inhibition for every item in the list.
One number for each entry, in %.

// worked examples, ratio activity, negative = inhibition included
[
  {
    "molecule": "Cc1nc(NS(=O)(=O)c2ccc(N)cc2)nc(C)c1Br",
    "ratio activity, negative = inhibition, %": 0.0634
  },
  {
    "molecule": "COc1ccc(C(=O)c2ccc(C)cc2)c(O)c1",
    "ratio activity, negative = inhibition, %": 6.33
  },
  {
    "molecule": "CCCCCCCCCCCC(=O)N(CCO)CCO",
    "ratio activity, negative = inhibition, %": 0
  },
  {
    "molecule": "CC/C(=C(/CC)c1ccc(OP(=O)(O)O)cc1)c1ccc(OP(=O)(O)O)cc1",
    "ratio activity, negative = inhibition, %": 2.34
  },
  {
    "molecule": "C[N+]1(C)[C@@H]2CC(OC(=O)C(O)(c3cccs3)c3cccs3)C[C@H]1[C@@H]1O[C@@H]12 (some centres undefined)",
    "ratio activity, negative = inhibition, %": -1.55
  },
  {
    "molecule": "O=C(O)CCC/C=C\\C[C@@H]1[C@@H](/C=C/[C@@H](O)COc2cccc(C(F)(F)F)c2)[C@H](O)C[C@@H]1O",
    "ratio activity, negative = inhibition, %": 4.13
  },
  {
    "molecule": "CC(=O)Oc1cccc2c1C(=O)c1c(OC(C)=O)cc(C(=O)O)cc1C2=O",
    "ratio activity, negative = inhibition, %": 0.316
  },
  {
    "molecule": "COC1=C(OC)C(=O)C(C/C=C(\\C)CC/C=C(\\C)CC/C=C(\\C)CC/C=C(\\C)CC/C=C(\\C)CC/C=C(\\C)CC/C=C(\\C)CC/C=C(\\C)CC/C=C(\\C)CCC=C(C)C)=C(C)C1=O",
    "ratio activity, negative = inhibition, %": 0.236
  }
]

I would be grateful if you could provide ratio activity, negative = inhibition for each of the following entries.
1. COc1ccccc1N1CCN(CCCC(=O)c2ccc(F)cc2)CC1
2. NCCO/C=C/[C@H](N)C(=O)O
3. NCC[C@H](O)C(=O)N[C@@H]1C[C@H](N)[C@@H](O[C@H]2O[C@H](CN)[C@@H](O)[C@H](O)[C@H]2O)[C@H](O)[C@H]1O[C@H]1O[C@H](CO)[C@@H](O)[C@H](N)[C@H]1O
4. OB(O)O
5. O=C(O)Cc1nn(Cc2ccc(Br)cc2F)c(=O)c2ccccc12
6. O=[N+]([O-])c1c(Cl)cccc1-c1c[nH]cc1Cl

Result block:
1. -14.3
2. 0.236
3. -4.63
4. 0.47
5. 3.04
6. -0.605

* * *

Target: Voltage-gated inwardly rectifying potassium channel KCNH2 (Homo sapiens)
Experiment: qHTS Assay for Small Molecule Inhibitors of the Human hERG Channel Activity (AID 588834);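 further: lower thallium flux fluorescence means stronger hERG block; nearly all actives have a fitted effect of over 50% in size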
Settings: U2OS BacMam hERG, FluxOR thallium flux fluorescence; series mostly up to 46.1 µM
Results filed as inconclusive are left out. Activity calls are given as the source filed them. Calls come from the whole dose curve; as a rule, active = well fitted inhibition curve with a large enough effect; inconclusive = small, poorly fitted or top-dose-only effect; inactive = flat fitted curve, though single readings scatter.
Please answer using one outcome listed in active, inactive

Example entries and their recorded answers appear below.
[
  {
    "smiles-input": "NC(=O)C1c2ccccc2CCc2ccccc21",
    "label": "inactive"
  },
  {
    "smiles-input": "CO[C@H]1C[C@H](O[C@H]2[C@H](C)[C@@H](O[C@@H]3O[C@H](C)C[C@H](N(C)C)[C@H]3O)[C@@H](C)C[C@]3(CO3)C(=O)[C@H](C)[C@@H](O)[C@@H](C)[C@@H](C)OC(=O)[C@@H]2C)O[C@@H](C)[C@@H]1O",
    "label": "inactive"
  }
]

Now, please, on to the next compound.
Query block: Kindly provide the recorded test outcome for the following compound: "CCOC(=O)Oc1c(OC)cc(C(=O)O[C@@H]2C[C@@H]3CN4CCc5c([nH]c6cc(OC)ccc56)[C@H]4C[C@@H]3[C@H](C(=O)OC)[C@H]2OC)cc1OC"
Result block: active
